Tested on: T47D
Experiment: NCI tumour cell line growth inhibition, 48 h
The source made the active and inactive calls. Rule as the data show it: active = GI50 up to about 1.1 µM and inactive = higher. *1 amine or outer side, *2 acyl side, *3 side chain or, on linkers, in order; H or OH if unused. Where a SMILES comes first, the peptide text is derived from it. Bridges are numbered along the chain shown (N, C = ends). [ ]: non-standard residue; d: D form. The star is where a group is joined. X36 = O=C(C(CCCCNO[*:3])N[*:1])[*:2]; Fmoc = O=C(OCC1c2ccccc2-c2ccccc21)*; Iva = CC[C](C)(N)C(=O)O; Boc = CC(C)(C)OC(=O)*; X54 = C1CCC(=NO*)C1
Outcomes: true (1) (active), false (0) (inactive)

{"columns": ["compound", "classification"],
 "data": [
  ["CCC1=NC(N/N=C/c2ccco2)=N/C1=C\\c1ccccc1O", "false (0)"],
  ["O=C1CS(=O)(=O)C(c2cccc(Oc3ccccc3)c2)N1c1cccc(Cl)c1 (centres undefined)", "false (0)"],
  ["CC1(C)CC2(C)ON=C(c3ccccc3)N2c2ccccc2N1 (centres undefined)", "false (0)"],
  ["C#CCCOC(=O)c1ccccc1OC(C)=O", "false (0)"],
  ["CC12CCCC(C(=O)O)(C1)[C@H](C(C)(C)C(=O)O)CC2 (some centres undefined)", "false (0)"],
  ["O=C(O)Cc1ccc(Oc2nc3ccccc3nc2-c2ccccc2)cc1", "false (0)"],
  ["Cc1ccc(O)c(C(=O)/C=C/c2ccccc2)c1", "false (0)"],
  ["C=C[C@@]1(C)CC(=O)[C@]2(O)[C@@]3(C)[C@@H](O)CCC(C)(C)[C@@H]3[C@H](O)[C@@H](OC(C)=O)[C@@]2(C)O1", "false (0)"],
  ["NNC(=O)C1(NC(=O)c2ccccc2)C(c2ccccc2)C(c2ccccc2)=NN1c1ccccc1 (centres undefined)", "false (0)"],
  ["CCc1ccc(NCc2cc(OC)c(OC)c(OC)c2)cc1", "true (1)"],
  ["CCCN1C(=O)CC(C)N(Cc2ccccc2Cl)C1=S (centres undefined)", "false (0)"],
  ["COc1ccc(C2Oc3c(cccc3OC)C=C2[N+](=O)[O-])cc1 (centres undefined)", "false (0)"],
  ["CCOP(=O)(OCC)/C(=C\\N1C(=O)CC(=O)NC1=S)C(=O)OC", "false (0)"],
  ["O=C1C(Cl)=C(Cl)C(=O)C2=C1C1c3ccccc3C2c2ccccc21", "false (0)"],
  ["S=C1CC(c2ccccc2)Sc2ccc(Cl)cc2N1 (centres undefined)", "false (0)"],
  ["NC(=O)c1c2c(n3ccccc13)C(=O)c1ccccc1C2=O", "false (0)"],
  ["SC1=NC2(CCCCCC2)NN1c1ccccc1", "true (1)"],
  ["NC(=O)CNC(=O)C1CCCN1C(=O)C1CCCCNOC(=O)CCC(NC(=O)OCC2c3ccccc3-c3ccccc32)C(=O)NC(Cc2c[nH]c3ccccc23)C(=O)N1 (centres undefined) (Fmoc-EW[X36]PG-NH2; ester 1-3; configuration not given here)", "false (0)"],
  ["N#Cc1c(NC(=S)NCc2ccccc2)sc2c1CCN(N1CCc3c(sc(NC(=S)NCc4ccccc4)c3C#N)C1)C2", "false (0)"],
  ["CCOC(=O)c1c(CN2CCNCC2)nc2ccccc2c1-c1ccccc1", "false (0)"],
  ["COC(=O)C1Cc2c([nH]c3ccccc23)-c2[nH]c3ccccc3c2CC(NC(C)=O)C(=O)NCC(=O)N1 (centres undefined)", "false (0)"],
  ["COc1ccc2c(N=[N+]=[N-])c(-c3ccccc3)c(=O)oc2c1", "false (0)"],
  ["C/C(=N\\NC(=[Se])N1CCN(c2ccccn2)CC1)c1ccccn1", "true (1)"],
  ["O=C(/C=C/c1ccc(O)cc1)c1cc(-c2cc(CCC(=O)c3ccc(O)cc3O)ccc2O)c(O)cc1O", "false (0)"],
  ["CCC(C)(NC(=O)C(C)NC(=O)OC(C)(C)C)C(=O)NC(C)C(=O)NC(C)(CC)C(=O)ON=C1CCCC1 (centres undefined) (Boc-A[Iva]A[Iva]-X54; configuration not given here)", "false (0)"],
  ["CCN1C(=O)C(=C/C=C/c2ccc([N+](=O)[O-])cc2)C(=O)N(CC)C1=S", "false (0)"],
  ["Cc1ccc(/N=C2/C(c3ccccc3)=C(SC3=C(c4ccccc4)/C(=N/c4ccc(C)cc4)c4ccccc43)c3ccccc32)cc1", "false (0)"],
  ["CCOc1ccc(/C=C2\\N=C(c3ccc([N+](=O)[O-])cc3)OC2=O)cc1", "false (0)"],
  ["c1ccc2c(c1)cc1n2CCc2c-1[nH]c1ccccc21", "false (0)"],
  ["Cc1nc(N)c(N2CCN([N+](=O)[O-])CC2)c(O)n1", "false (0)"],
  ["O=C1c2ccccc2-c2ccc(/N=[N+](/[O-])c3ccc4c(c3)C(=O)c3ccccc3-4)cc21", "false (0)"],
  ["Cc1oc2nc(N(C)C)n3nnnc3c2c1C", "false (0)"],
  ["CCOC(=O)COC1=Nc2cc(OC)c(OC)c3nc(Cl)cc(c23)C1=O", "false (0)"],
  ["CCOC(=O)N1N(c2ccccc2)C(=O)C1(c1ccccc1)c1ccccc1", "false (0)"],
  ["O=C1CCC[C@]2(CCC[C@@H](O)C2)N1", "false (0)"],
  ["O=C(CSc1nc2ccc(I)cc2c(=O)n1Cc1ccccc1)Nc1ccccc1", "false (0)"],
  ["Cc1cc2c(nn1)-c1ccccc1C2=O", "false (0)"],
  ["Cc1cc(N(CCOS(C)(=O)=O)CCOS(C)(=O)=O)ccc1/C=N/c1ccc(-c2csc(-c3ccccc3)n2)c(Cl)c1", "false (0)"],
  ["c1cc(CSP234N5CCN2CCN3CCN4CC5)cc(CSP234N5CCN2CCN3CCN4CC5)c1", "false (0)"]
]}
